Data credit: patent US20260138976A1

Item-by-item account of Emax IL2 (% activation)
Tested on: primary human T-cells
Assay: IL2 secretion measurements (24 h, CD3-stimulated T-cells, PBS counter screen)
Assay type: cell-based
Details: CD3 condition; normalised to DMSO (neutral) and 20 μM reference compound A1 = 100%
recordedMetric: Emax IL2 (% activation)

[[record]]
compound = "N[C@H]1CS(=O)(=O)c2ccc(-c3nnc(C(N)(C4CC4)C(F)(F)F)o3)cc2N(Cc2ccc(-c3noc(C4CC4)n3)cc2)C1=O (stereo partly drawn)"
testedon = "primary human T-cells"
recordedmetric = "Emax IL2 (% activation)"
resultnumber = 122

[[record]]
compound = "CC(C)(C)c1nnc(-c2ccc3c(c2)N(Cc2ccc(-n4cc(C(F)(F)F)cn4)cc2)C(=O)[C@@H](N)CS3(=O)=O)o1"
testedon = "primary human T-cells"
recordedmetric = "Emax IL2 (% activation)"
resultnumber = 137

[[record]]
compound = "CN1CCCC(F)(c2nnc(-c3ccc4c(c3)N(Cc3ccc(-c5ccc(C(F)(F)F)cn5)cc3)C(=O)[C@@H](N)CS4(=O)=O)o2)C1 (stereo partly drawn)"
testedon = "primary human T-cells"
recordedmetric = "Emax IL2 (% activation)"
resultnumber = 135


---

Target: DGKζ (hDGKzeta(1-928)-N-His) (Homo sapiens, UniProt Q13574)
Sequence (Q13574 whole entry): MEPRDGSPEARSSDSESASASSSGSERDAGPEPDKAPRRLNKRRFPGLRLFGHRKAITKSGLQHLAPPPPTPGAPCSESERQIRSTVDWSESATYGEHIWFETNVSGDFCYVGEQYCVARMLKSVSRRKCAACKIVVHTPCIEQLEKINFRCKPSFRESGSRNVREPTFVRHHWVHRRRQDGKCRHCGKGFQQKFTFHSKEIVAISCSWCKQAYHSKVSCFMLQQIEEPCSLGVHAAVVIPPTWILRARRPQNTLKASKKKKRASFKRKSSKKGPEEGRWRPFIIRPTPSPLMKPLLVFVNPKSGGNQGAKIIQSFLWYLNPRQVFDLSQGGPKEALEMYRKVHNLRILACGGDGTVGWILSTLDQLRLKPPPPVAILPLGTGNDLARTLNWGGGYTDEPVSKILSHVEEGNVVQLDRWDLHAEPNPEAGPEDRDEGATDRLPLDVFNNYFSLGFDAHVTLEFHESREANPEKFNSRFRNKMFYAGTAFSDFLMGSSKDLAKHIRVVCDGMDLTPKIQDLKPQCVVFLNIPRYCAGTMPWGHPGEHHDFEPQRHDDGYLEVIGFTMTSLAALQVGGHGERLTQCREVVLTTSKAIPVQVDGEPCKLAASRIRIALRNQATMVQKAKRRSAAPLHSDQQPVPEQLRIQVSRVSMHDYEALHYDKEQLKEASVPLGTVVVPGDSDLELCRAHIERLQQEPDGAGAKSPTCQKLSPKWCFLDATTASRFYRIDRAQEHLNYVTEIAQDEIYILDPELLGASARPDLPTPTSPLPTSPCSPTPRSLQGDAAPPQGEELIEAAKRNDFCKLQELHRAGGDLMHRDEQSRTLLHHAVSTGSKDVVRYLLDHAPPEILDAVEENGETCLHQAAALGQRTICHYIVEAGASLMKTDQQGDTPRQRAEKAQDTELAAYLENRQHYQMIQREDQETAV
pIC50: −log10 of the molar value.
Item-by-item account of pIC50
recordedMetric: pIC50

[[record]]
molecule = "CC(C)(CC#N)c1nnc(-c2ccc3c(c2)N(Cc2ccc(-c4ccc(OC(F)(F)F)cn4)cc2)C(=O)[C@@H](N)CS3(=O)=O)o1 [Example 175]"
resultnumber = 6.13

[[record]]
molecule = "CC(C)(C)c1nnc(-c2ccc3c(c2)N(Cc2ccc(-n4cnc(C(F)(F)F)c4)cc2)C(=O)[C@@H](N)CS3(=O)=O)o1 [Example 28]"
resultnumber = 5.37

[[record]]
molecule = "N[C@H]1CS(=O)(=O)c2cc(F)c(-c3noc(C4(N)COC4)n3)cc2N(Cc2ccc(-c3ccc(C(F)(F)F)cn3)cc2)C1=O [Example 10]"
resultnumber = 6.55

[[record]]
molecule = "CC(C)(C)c1nnc(-c2ccc3c(c2)N(Cc2ccc(-c4nnc(C(F)(F)F)o4)cc2)C(=O)[C@@H](N)CS3(=O)=O)o1 [Example 24]"
resultnumber = 5.84

[[record]]
molecule = "CC(C)(c1nnc(-c2ccc3c(c2)N(Cc2ccc(-c4noc(C(F)(F)F)n4)cc2)C(=O)[C@@H](N)CS3(=O)=O)o1)C(F)(F)F [Example 166]"
resultnumber = 5.76

[[record]]
molecule = "CC(C)(C#N)c1nnc(-c2ccc3c(c2)N(Cc2ccc(-c4ccc(C(F)(F)F)cc4)cc2)C(=O)[C@@H](N)CS3(=O)=O)o1 [Example 46]"
resultnumber = 5.90


---

Test system: primary human T-cells
Assay: IL2 secretion measurements (24 h, CD3-stimulated T-cells, PBS counter screen)
Type: cell-based
Details: CD3 condition; normalised to DMSO (neutral) and 20 μM reference compound A1 = 100%
Procedure: As readouts for T-cell activation, 1L2 secretion after 24 hours and proliferation after 5 days was measured. Increases in IL2 secretion and proliferation upon compound treatment were assessed as the % of the maximum of reference compound A1. […] The immunoassay is done following the manufacturer's manual (Invitrogen, #A35603). […] Raw data is extracted and IL-2 concentrations are calculated with the Thermo Fisher online app (apps.thermofisher.com/apps/proquantum). […]
recordedMetric: Emax IL2 (% activation)

[[record]]
compound = "N[C@H]1CS(=O)(=O)c2ccc(-c3nnc(N4CCOC(C(F)(F)F)C4)o3)cc2N(Cc2ccc(-c3ccc(C(F)(F)F)cn3)cc2)C1=O (stereo partly drawn) [Example 75]"
recordedmetric = "Emax IL2 (% activation)"
result = "140 % activation"

[[record]]
compound = "Cn1ccc(-c2ccc(CN3C(=O)[C@@H](N)CS(=O)(=O)c4cc(F)c(-c5nnc(C(C)(C)C)o5)cc43)cc2)n1 [Example 1]"
recordedmetric = "Emax IL2 (% activation)"
result = "91 % activation"

[[record]]
compound = "N[C@H]1CS(=O)(=O)c2cc(F)c(-c3noc(N4CCOC5(CC5)C4)n3)cc2N(Cc2ccc(-c3ccc(C(F)(F)F)cc3)nc2)C1=O [Example 11]"
recordedmetric = "Emax IL2 (% activation)"
result = "64 % activation"

[[record]]
compound = "CC(C)(C)c1nnc(-c2ccc3c(c2)N(Cc2ccc(-n4ccc(C(F)(F)F)n4)cc2)C(=O)[C@@H](N)CS3(=O)=O)o1 [Example 27]"
recordedmetric = "Emax IL2 (% activation)"
result = "160 % activation"

[[record]]
compound = "C[C@](N)(c1nnc(-c2ccc3c(c2)N(Cc2ccc(-c4noc(C(F)(F)F)n4)cc2)C(=O)[C@@H](N)CS3(=O)=O)o1)C(F)(F)F [Example 53]"
recordedmetric = "Emax IL2 (% activation)"
result = "187 % activation"

[[record]]
compound = "CC(C)(C#N)c1nnc(-c2ccc3c(c2)N(Cc2ccc(-c4ccc(OC(F)(F)C(F)(F)F)cn4)cc2)C(=O)[C@@H](N)CS3(=O)=O)o1 [Example 129]"
recordedmetric = "Emax IL2 (% activation)"
result = "187 % activation"

[[record]]
compound = "Cc1noc(-c2ccc(CN3C(=O)[C@@H](N)CS(=O)(=O)c4cc(F)c(-c5nnc(C(C)(C)C)o5)cc43)cc2)n1 [Example 2]"
recordedmetric = "Emax IL2 (% activation)"
result = "168 % activation"

[[record]]
compound = "N[C@H]1CS(=O)(=O)c2ccc(-c3noc(-c4cccnc4Cl)n3)cc2N(Cc2ccc(-c3noc(C4CC4)n3)cc2)C1=O [Example 85]"
recordedmetric = "Emax IL2 (% activation)"
result = "4 % activation"

[[record]]
compound = "CC(N)(c1nnc(-c2ccc3c(c2)N(Cc2ccc(-c4noc(CC(F)(F)F)n4)cc2)C(=O)[C@@H](N)CS3(=O)=O)o1)C(F)(F)F (stereo partly drawn) [Example 33]"
recordedmetric = "Emax IL2 (% activation)"
result = "24 % activation"

[[record]]
compound = "N[C@H]1CS(=O)(=O)c2ccc(-c3nnc(C4(C5CC5)CCCO4)o3)cc2N(Cc2ccc(-c3noc(C(F)(F)F)n3)cc2)C1=O (stereo partly drawn) [Example 36]"
recordedmetric = "Emax IL2 (% activation)"
result = "223 % activation"

[[record]]
compound = "N#CC1(c2nnc(-c3ccc4c(c3)N(Cc3ccc(-c5ccc(OC(F)(F)F)cn5)cc3)C(=O)[C@@H](N)CS4(=O)=O)o2)CCC1 [Example 172]"
recordedmetric = "Emax IL2 (% activation)"
result = "120 % activation"

[[record]]
compound = "CC(C)(C)c1nnc(-c2ccc3c(c2)N(Cc2ccc(-c4noc(C(F)(F)F)n4)cc2)C(=O)[C@@H](N)CS3(=O)=O)o1 [Example 23]"
recordedmetric = "Emax IL2 (% activation)"
result = "120 % activation"

[[record]]
compound = "CC(C)(C#N)c1nnc(-c2ccc3c(c2)N(Cc2ccc(-c4cnc(C(F)(F)F)nc4)cc2)C(=O)[C@@H](N)CS3(=O)=O)o1 [Example 100]"
recordedmetric = "Emax IL2 (% activation)"
result = "100 % activation"

[[record]]
compound = "N[C@H]1CS(=O)(=O)c2cc(F)c(-c3noc(C4(N)COC4)n3)cc2N(Cc2ccc(-c3ccc(C(F)(F)F)cn3)cc2)C1=O [Example 10]"
recordedmetric = "Emax IL2 (% activation)"
result = "123 % activation"

[[record]]
compound = "N#CC1(c2nnc(-c3ccc4c(c3)N(Cc3ccc(-c5ccc(C(F)(F)F)cn5)cc3)C(=O)[C@@H](N)CS4(=O)=O)o2)CC1 [Example 62]"
recordedmetric = "Emax IL2 (% activation)"
result = "110 % activation"

[[record]]
compound = "CC(C)(C)c1nnc(-c2ccc3c(c2)N(Cc2ccc(-c4nc(C(F)(F)F)no4)cc2)C(=O)[C@@H](N)CS3(=O)=O)o1 [Example 26]"
recordedmetric = "Emax IL2 (% activation)"
result = "155 % activation"

[[record]]
compound = "CC(F)(F)c1ccc(-c2ccc(CN3C(=O)[C@@H](N)CS(=O)(=O)c4ccc(-c5nnc(C(C)(C)C#N)o5)cc43)cc2)nc1 [Example 109]"
recordedmetric = "Emax IL2 (% activation)"
result = "360 % activation"

[[record]]
compound = "CC(C)(C#N)c1nnc(-c2ccc3c(c2)N(Cc2ccc(-c4ncc(C(F)(F)F)cn4)cc2)C(=O)[C@@H](N)CS3(=O)=O)o1 [Example 127]"
recordedmetric = "Emax IL2 (% activation)"
result = "112 % activation"

[[record]]
compound = "CC(C)(C#N)c1nnc(-c2ccc3c(c2)N(Cc2ccc(-c4noc(C5CCC(F)(F)CC5)n4)cc2)C(=O)[C@@H](N)CS3(=O)=O)o1 [Example 101]"
recordedmetric = "Emax IL2 (% activation)"
result = "429 % activation"

[[record]]
compound = "N[C@H]1CS(=O)(=O)c2cc(F)c(-c3noc(C4(CO)CCCO4)n3)cc2N(Cc2ccc(-c3noc(C(F)(F)F)n3)cc2)C1=O (stereo partly drawn) [Example 18]"
recordedmetric = "Emax IL2 (% activation)"
result = "529 % activation"

[[record]]
compound = "CC(C)(C#N)c1nnc(-c2ccc3c(c2)N(Cc2ccc(-c4ccc(OC(F)(F)F)cn4)cc2)C(=O)[C@@H](N)CS3(=O)=O)o1 [Example 124]"
recordedmetric = "Emax IL2 (% activation)"
result = "154 % activation"

[[record]]
compound = "COC(=O)N1CC2CC(c3nnc(-c4ccc5c(c4)N(Cc4ccc(-c6noc(C(F)(F)F)n6)cc4)C(=O)[C@@H](N)CS5(=O)=O)o3)(C2)C1 [Example 61]"
recordedmetric = "Emax IL2 (% activation)"
result = "241 % activation"

[[record]]
compound = "N[C@H]1CS(=O)(=O)c2ccc(-c3nnc(N4CCC(F)(F)CC4)o3)cc2N(Cc2ccc(-n3ccc(C(F)(F)F)n3)cc2)C1=O [Example 162]"
recordedmetric = "Emax IL2 (% activation)"
result = "185 % activation"

[[record]]
compound = "CC(C)(C#N)c1nnc(-c2ccc3c(c2)N(Cc2ccc(-c4ccnc(C(F)(F)F)c4)cc2)C(=O)[C@@H](N)CS3(=O)=O)o1 [Example 111]"
recordedmetric = "Emax IL2 (% activation)"
result = "151 % activation"

